# EC50 per entry
Test system: CEM-SS
Experiment: Effective concentration to inhibit HIV replication in TK CEM-SS cell line and the value is represented as EC50
Assay type: functional, cell-based
Conditions: Homo sapiens

Compound: Cc1cn(C2CC(N=[N+]=[N-])C(COP(=O)(Nc3ccccc3)OCCSC(=O)C(C)(C)C)O2)c(=O)[nH]c1=O (stereo unspecified)
Unit: nM
Reading qualifier: >
EC50: 10000
--
Compound: Cc1cn(C2CC(N=[N+]=[N-])C(COP(=O)(O)N3CCOCC3)O2)c(=O)[nH]c1=O (stereo unspecified)
Unit: nM
Reading qualifier: =
EC50: 2000
--
Compound: CCCCNP(=O)(O)OCC1OC(n2cc(C)c(=O)[nH]c2=O)CC1N=[N+]=[N-] (stereo unspecified)
Unit: nM
Reading qualifier: =
EC50: 1200
--
Compound: CCCCN(CCCC)P(=O)(O)OCC1OC(n2cc(C)c(=O)[nH]c2=O)CC1N=[N+]=[N-] (stereo unspecified)
Unit: nM
Reading qualifier: >
EC50: 10000
--
Compound: Cc1cn(C2CC(N=[N+]=[N-])C(COP(=O)(NC(C)(C)C)OCCSC(=O)C(C)(C)C)O2)c(=O)[nH]c1=O (stereo unspecified)
Unit: nM
Reading qualifier: =
EC50: 1500
--
Compound: Cc1cn(C2CC(N=[N+]=[N-])C(COP(=O)(O)N3CCCCC3)O2)c(=O)[nH]c1=O (stereo unspecified)
Unit: nM
Reading qualifier: =
EC50: 5200

---

Test: The pKa value was reported
Assay type: physicochemical
Lab note: anything with pKa at or over 10 counts as YES; the rest go in NO.

Compound: Cc1cn(C2CC(N=[N+]=[N-])C(COP(=O)(NC(C)(C)C)OCCSC(=O)C(C)(C)C)O2)c(=O)[nH]c1=O (configuration not stated)
Assigned class: YES

Compound: CCCCN(CCCC)P(=O)(O)OCC1OC(n2cc(C)c(=O)[nH]c2=O)CC1N=[N+]=[N-] (configuration not stated)
Assigned class: YES

Compound: CCCCNP(=O)(O)OCC1OC(n2cc(C)c(=O)[nH]c2=O)CC1N=[N+]=[N-] (configuration not stated)
Assigned class: YES

Compound: Cc1cn(C2CC(N=[N+]=[N-])C(COP(=O)(NC(C)C)OCCSC(=O)C(C)(C)C)O2)c(=O)[nH]c1=O (configuration not stated)
Assigned class: YES

Compound: Cc1cn(C2CC(N=[N+]=[N-])C(COP(=O)(O)N3CCCCC3)O2)c(=O)[nH]c1=O (configuration not stated)
Assigned class: YES

Compound: Cc1cn(C2CC(N=[N+]=[N-])C(COP(=O)(O)N3CCOCC3)O2)c(=O)[nH]c1=O (configuration not stated)
Assigned class: NO

Compound: Cc1cn(C2CC(N=[N+]=[N-])C(COP(=O)(Nc3ccccc3)OCCSC(=O)C(C)(C)C)O2)c(=O)[nH]c1=O (configuration not stated)
Assigned class: NO
